FYI, the data here is from paper PMC4515144.

We begin with a simple list: items and their reported Rank ordering by NMR.
molecular target: EphA2 ligand binding domain (residues 27-200) (UniProt P29317 27-200); assay: NMR titration
Sequence (P29317 27-200): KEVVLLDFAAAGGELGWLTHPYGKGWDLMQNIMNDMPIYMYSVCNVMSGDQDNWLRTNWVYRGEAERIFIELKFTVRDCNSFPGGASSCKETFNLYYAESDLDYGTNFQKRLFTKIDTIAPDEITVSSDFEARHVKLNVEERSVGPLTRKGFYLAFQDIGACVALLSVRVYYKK
*: point of attachment. P‑1 benzyl acid (p-CN) = benzyl acid lacking the N-terminal amino group (p-cyano substituted), replacing Tyr at P-1, N#Cc1ccc(CCC(=O)*)cc1; P‑1 benzyl acid (p-SO2NH2) = p-sulfonamide (SO2NH2) benzyl acid lacking the N-terminal amino group, replacing Tyr P-1; P‑1 benzyl acid (m-CH3) = m-methyl benzyl acid lacking the N-terminal amino group, replacing Tyr P-1; P‑1 benzyl acid (m-Cl) = m-chloro benzyl acid lacking the N-terminal amino group, replacing Tyr P-1; P‑1 benzyl acid (m-F) = m-fluoro benzyl acid lacking the N-terminal amino group, replacing Tyr P-1; P‑1 benzyl acid (p-NH2) = benzyl acid at P-1 lacking the N-terminal amino group, replacing Tyr P-1; Propanoyl(3-(4-F-phenyl)) = O=C(CCc1ccc(F)cc1)*
reported.property: Rank ordering by NMR

[
  {
    "binder": "{P‑1 benzyl acid (p-SO2NH2)}-SAYPDSVP-NH2 [120H8]",
    "reported.property": "Rank ordering by NMR",
    "measured": "3 rank, arbitrary scale 1-5"
  },
  {
    "binder": "{P‑1 benzyl acid (p-NH2)}-SAYPDSVP-NH2 [120H5]",
    "reported.property": "Rank ordering by NMR",
    "measured": "1 rank, arbitrary scale 1-5"
  },
  {
    "binder": "{P‑1 benzyl acid (m-F)}-SAYPDSVP-NH2 [120G7]",
    "reported.property": "Rank ordering by NMR",
    "measured": "2 rank, arbitrary scale 1-5"
  },
  {
    "binder": "{P‑1 benzyl acid (p-CN)}-SAYPDSVP-NH2 [120A5]",
    "reported.property": "Rank ordering by NMR",
    "measured": "3 rank, arbitrary scale 1-5"
  },
  {
    "binder": "{P‑1 benzyl acid (m-CH3)}-SAYPDSVP-NH2 [123A12]",
    "reported.property": "Rank ordering by NMR",
    "measured": "4 rank, arbitrary scale 1-5"
  },
  {
    "binder": "{Propanoyl(3-(4-F-phenyl))}-SAYPDSVP-NH2 [120F11]",
    "reported.property": "Rank ordering by NMR",
    "measured": "2 rank, arbitrary scale 1-5"
  },
  {
    "binder": "{P‑1 benzyl acid (m-Cl)}-SAYPDSVP-NH2 [120G8]",
    "reported.property": "Rank ordering by NMR",
    "measured": "4 rank, arbitrary scale 1-5"
  }
]
